# key: entry, value: HSA binding
target: Human serum albumin (HSA) (Homo sapiens, UniProt P02768); construct: purchased Daicel, Tokyo, Japan H13H-2433; assay: Human serum albumin binding via high performance affinity chromatography (HPAC); format: in vitro ADME; conditions: Chiralpak HSA column, n = 1
Sequence (P02768 25-609): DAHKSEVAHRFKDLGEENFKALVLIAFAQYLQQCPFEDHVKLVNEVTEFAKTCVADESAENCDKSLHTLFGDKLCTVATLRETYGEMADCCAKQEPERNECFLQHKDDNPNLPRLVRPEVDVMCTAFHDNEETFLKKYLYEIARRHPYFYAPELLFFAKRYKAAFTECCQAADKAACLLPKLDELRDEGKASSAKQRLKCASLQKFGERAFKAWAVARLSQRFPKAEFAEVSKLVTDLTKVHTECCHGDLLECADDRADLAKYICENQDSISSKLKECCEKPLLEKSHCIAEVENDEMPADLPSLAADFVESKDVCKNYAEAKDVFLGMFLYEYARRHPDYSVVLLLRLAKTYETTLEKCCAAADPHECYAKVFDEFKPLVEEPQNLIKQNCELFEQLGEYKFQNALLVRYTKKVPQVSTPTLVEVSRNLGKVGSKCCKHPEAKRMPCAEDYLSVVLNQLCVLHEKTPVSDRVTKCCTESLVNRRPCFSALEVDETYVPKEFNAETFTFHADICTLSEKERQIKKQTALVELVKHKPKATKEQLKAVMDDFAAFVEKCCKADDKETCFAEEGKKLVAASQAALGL
observable: HSA binding (%)

[
  {
    "compound": "CCCC[C@@H](C(=O)N[C@@H](CC(=O)O)C(=O)N[C@@H](Cc1cccc2ccccc12)C(N)=O)N(C)C(=O)[C@H](Cc1c[nH]c2ccccc12)NC(=O)CCOCCOCCOCCOCCNC(=O)CC[C@@H](NC(=O)CCOCCOCCOCCOCCOCCOCCOCCOCCNC(=O)CC[C@@H](NC(=O)[C@@H](CNC(=O)c1cc(C(=O)O)cc([Si](F)(C(C)(C)C)C(C)(C)C)c1)NC(=O)CN1CCN(CC(=O)O)CCN(CC(=O)O)CCN(CC(=O)O)CC1)C(=O)O)C(=O)O [[^nat/177Lu]Lu-DOTA-rhCCK-72, DOTA-D-Dap(SiFA-ipa)-D-γ-Glu-(PEG)7-B, metal not drawn]",
    "observable": "HSA binding",
    "reported_value": 89.3
  },
  {
    "compound": "CCCC[C@@H](C(=O)N[C@@H](CC(=O)O)C(=O)N[C@@H](Cc1cccc2ccccc12)C(N)=O)N(C)C(=O)[C@H](Cc1c[nH]c2ccccc12)NC(=O)CCOCCOCCOCCOCCNC(=O)CC[C@@H](NC(=O)CCOCCOCCOCCOCCOCCNC(=O)CC[C@@H](NC(=O)[C@@H](CNC(=O)C[N+](C)(C)Cc1ccc([Si](F)(C(C)(C)C)C(C)(C)C)cc1)NC(=O)CN1CCN(CC(=O)O)CCN(CC(=O)O)CCN(CC(=O)O)CC1)C(=O)O)C(=O)O [[^nat/177Lu]Lu-DOTA-rhCCK-91, metal not drawn]",
    "observable": "HSA binding",
    "reported_value": 90.0
  }
]

* * *

experiment: Biodistribution at 24 h p.i. in AR42J tumor-bearing CB17-SCID mice; format: in vivo; details: both sexes, CB17-SCID, mouse, tumor/stomach, 100 pmol, total radioactivity, 100 pmol, n=4, Table S3, read-out: Tumor-to-background ratio, Stomach
Documented tissue to tissue ratio at 24 h across a set of compounds
observable: tissue to tissue ratio at 24 h

[
  {
    "compound": "CCCC[C@@H](C(=O)N[C@@H](CC(=O)O)C(=O)N[C@@H](Cc1cccc2ccccc12)C(N)=O)N(C)C(=O)[C@H](Cc1c[nH]c2ccccc12)NC(=O)CCOCCOCCOCCOCCNC(=O)CC[C@@H](NC(=O)CCOCCOCCOCCOCCOCCNC(=O)CC[C@@H](NC(=O)[C@@H](CNC(=O)C[N+](C)(C)Cc1ccc([Si](F)(C(C)(C)C)C(C)(C)C)cc1)NC(=O)CN1CCN(CC(=O)O)CCN(CC(=O)O)CCN(CC(=O)O)CC1)C(=O)O)C(=O)O [[^nat/177Lu]Lu-DOTA-rhCCK-91, metal not drawn]",
    "reported_value": 1.95
  },
  {
    "compound": "CCCC[C@@H](C(=O)N[C@@H](CC(=O)O)C(=O)N[C@@H](Cc1cccc2ccccc12)C(N)=O)N(C)C(=O)[C@H](Cc1c[nH]c2ccccc12)NC(=O)CCOCCOCCOCCOCCNC(=O)CC[C@@H](NC(=O)CCOCCOCCOCCOCCOCCOCCOCCOCCNC(=O)CC[C@@H](NC(=O)[C@@H](CNC(=O)c1ccc([Si](F)(C(C)(C)C)C(C)(C)C)cc1)NC(=O)CN1CCN(CC(=O)O)CCN(CC(=O)O)CCN(CC(=O)O)CC1)C(=O)O)C(=O)O [[^nat/177Lu]Lu-DOTA-rhCCK-70, metal not drawn]",
    "reported_value": 1.97
  }
]

// provenance: paper PMC10907560
